Taken from patent US20030153051A1.

Property: Relative activity, Nocardia erythropolis; scope: individual compounds
- Test system: cholesterol oxidase derived from Nocardia erythropolis
- method description: Effect of organic solvents on enzyme activity (Nocardia erythropolis)
- Format: biochemical
- condition: organic solvent 50% by volume of reaction solution; pH 7, 30° C.; no solvent = 1
// print number alone

Example compounds with recorded Relative activity, Nocardia erythropolis:
>>> test_value("CCCc1ccccc1")
1.6
>>> test_value("Cc1ccccc1")
1.7
>>> test_value("c1ccc(Cc2ccccc2)cc1")
1.6

State the recorded Relative activity, Nocardia erythropolis for this entry: C1CCCCCCC1
1.1

State the recorded Relative activity, Nocardia erythropolis for this entry: ClC(Cl)Cl [Chloroform]
0.3

State the recorded Relative activity, Nocardia erythropolis for this entry: c1ccccc1
1.5

State the recorded Relative activity, Nocardia erythropolis for this entry: Cc1ccc(C)cc1
1.6
